target-desc: T1, PTPN13_1, Q12923
T1 sequence (Q12923 1088-1188, limits assumed, looked up): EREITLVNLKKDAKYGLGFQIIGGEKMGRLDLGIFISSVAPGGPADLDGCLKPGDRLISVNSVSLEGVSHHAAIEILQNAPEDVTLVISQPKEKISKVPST
assay-comment: holdup assay
Design: key: below the threshold = too weak to quantify, mostly under pKd 3.1 to 4
condition-context: plain residues with an end cap or a label only (N-terminal biotin on a linker: ado-ado)
readout: pKd

The cases that follow already have their pKd on record.
SPDRDRESIV [SCN5A, Q14524] : below the threshold
REEPDHSTEV [CCRL2, O00421] : below the threshold
NTLNRKTTPV [CACNG8, Q8WXS5] : below the threshold
PYSESDDDWC [CACNA1A, O00555] : below the threshold
TNSRHGETTV [FZD2, Q14332] : below the threshold
KKMLQRRTLL [OR8G1, Q15617] : below the threshold
PTPDLPQTRV [KLHDC7A, Q5VTJ3] : below the threshold
KSRVAFFEEL [NF2, P35240;P35240-1] : below the threshold
ARGPPRESEV [FAM110D, Q8TAY7] : below the threshold
SFISKKEWYV [NECTIN1, Q15223] : below the threshold

Fill blank: measured pKd of the binder DFLSTFHIRI [CIB2, O75838] is ____.
below the threshold

Next record, please: EPQYQPGENL [SRC, P12931]
below the threshold

Same again, this time with ELSATVTTDC [TRIP6, Q15654]
below the threshold

Similarly, KRPEMTSSSV [MUC3B, MUC3A, Q02505;Q9H195] ?
below the threshold

Would you kindly repeat that for SLNANEVEWF [RNF130, Q86XS8] ?
3.5

Query TISFTQTSQF [SLC1A1, P43005] next
below the threshold

Here is the next binder: TRKRSGEAAV [PFKM, P08237]
below the threshold

Next up: QKAPTKEFYA [SDC2, P34741]
below the threshold

// query: KPGKGSETVV [FZD4, Q9ULV1]
below the threshold

Further, for VLYPREGTEV [FOXI1, Q12951] ?
below the threshold

Param item: VKRNSKETVV [MARCHF3, Q86UD3]
3.53
